- experiment-summary: PBMC cytotoxicity (ViaCount Assay)
- Type: cell-based
- particulars: human; all assessed concentrations; read-out: PBMC viability relative to PBMCs in 0.1% DMSO
recorded-endpoint: viability

**Q:** Quick one: viability of COc1cc2c(cc1O)C[C@H]1c3c(cc(O)c(OC)c3-2)CCN1C ?
**A:** > 85%

====

- experiment-summary: PBMC cytotoxicity (ViaCount Assay)
- Assay type: cell-based
- particulars: human, PHA-activated PBMCs; all assessed concentrations; read-out: PBMC viability relative to PBMCs in 0.1% DMSO
recorded-endpoint: viability

**Q:** Quick one: viability of Oc1cc(O)c2c(c1)OC1(c3ccc(O)c(O)c3)Oc3c4c(c5c(c3C2C1O)OC1(c2ccc(O)c(O)c2)Oc2cc(O)cc(O)c2C5C1O)OC(c1ccc(O)c(O)c1)C(O)C4 (stereo not shown) [ixoratannin A-2] ?
**A:** > 85%
